molecular target: T1, MHC class I allele A*0301 (bound via biotin to streptavidin-coated plate); experiment: iTopia peptide binding assay
T1 construct: iTopia MHC class I monomer on the plate; placeholder peptide and b2M removed, then reconstituted with test peptide and fresh b2M; also called A3; HLA A3
Observation type: % of positive control peptide binding (%)
Give bare numbers, in %.

Worked set:
PALCECSEA (also called Peptide No 32) [5T4 9 mer peptide 32 PALCECSEA]
0
APFLASAVS (also called Peptide No 23) [5T4 9 mer peptide 23 APFLASAVS]
0
NHIVPPEDE (also called Peptide No 91) [5T4 9 mer peptide 91 NHIVPPEDE]
3

Attention now turns to another entry.
Measured % of positive control peptide binding of SPTSSASSF (also called Peptide No 17) [5T4 9 mer peptide 17 SPTSSASSF] : 0
